Molecular target: Lck (Homo sapiens, UniProt P06239)
Sequence (P06239 whole entry, species assumed): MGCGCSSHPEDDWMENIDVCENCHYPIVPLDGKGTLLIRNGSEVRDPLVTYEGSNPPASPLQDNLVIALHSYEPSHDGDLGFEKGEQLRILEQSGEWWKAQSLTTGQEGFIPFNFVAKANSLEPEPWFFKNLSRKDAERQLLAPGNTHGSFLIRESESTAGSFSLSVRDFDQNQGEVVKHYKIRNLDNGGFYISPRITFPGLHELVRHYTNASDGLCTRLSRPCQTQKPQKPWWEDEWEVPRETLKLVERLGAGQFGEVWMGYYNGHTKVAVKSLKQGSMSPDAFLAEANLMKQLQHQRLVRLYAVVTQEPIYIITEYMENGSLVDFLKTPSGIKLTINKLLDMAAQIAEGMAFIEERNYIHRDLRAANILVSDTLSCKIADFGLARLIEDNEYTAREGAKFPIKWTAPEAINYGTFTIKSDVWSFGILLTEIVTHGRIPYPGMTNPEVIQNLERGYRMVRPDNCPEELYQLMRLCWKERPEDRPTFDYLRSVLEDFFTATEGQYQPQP
Assay: Lck kinase activity, TR-FRET assay
Format: biochemical
Conditions: read-out: LCK (IC50)
METRIC: IC50

As a guide, the following entries are already answered.
# COMPOUND, SYSTEM_TESTED, IC50
records = [
    ("CCC(=O)N1CCC[C@@H](Nc2n[nH]c3ncnc(Oc4ccc(Oc5ccccc5)cc4)c23)C1", "Lck (Homo sapiens, UniProt P06239)", "0.1 to 1 µM"),
    ("C=CC(=O)N1CC[C@@H](Nc2n[nH]c3nccc(Oc4ccc(Cl)cc4)c23)C1", "Lck (Homo sapiens, UniProt P06239)", "1 to 10 µM"),
    ("C=CC(=O)N1CC[C@@H](Nc2c[nH]c3nccc(Oc4ccc(Cl)cc4)c23)C1", "Lck (Homo sapiens, UniProt P06239)", "1 to 10 µM"),
]

Now look at this one.
Briefly, IC50 measured for COCC1(C(=O)N2CCC[C@@H](Nc3n[nH]c4nccc(Oc5ccc(C(=O)Nc6cc(C)ccn6)cc5)c34)C2)CCC1 : 0.1 to 1 µM

* * *

Reported IC50 values, JAK3 (Homo sapiens).

# MOL_SMILES, SYSTEM_TESTED, VAL
measured = [
    ("CCNC(=O)N1CCC[C@@H](Nc2n[nH]c3nccc(Oc4ccc(C(=O)Nc5cc(C(F)(F)F)ccn5)cc4)c23)C1", "JAK3 (Homo sapiens)", "> 10 µM"),
    ("C=CC(=O)N1CCC[C@@H](Nc2n[nH]c3nccc(Nc4cccc(C(=O)Nc5ccc(C(C)C)c(C)c5)c4)c23)C1", "JAK3 (Homo sapiens)", "< 0.1 µM"),
    ("Cc1ccnc(NC(=O)c2ccc(Oc3ccnc4[nH]nc(N[C@@H]5CCCN(C(=O)C6(C)CCNCC6)C5)c34)cc2)c1", "JAK3 (Homo sapiens)", "> 10 µM"),
    ("CC#CC(=O)N1CCC[C@@H](Nc2n[nH]c3nccc(Oc4ccc(C(=O)Nc5nc(C)c(C)s5)cc4)c23)C1", "JAK3 (Homo sapiens)", "> 10 µM"),
]

Query CN(C/C=C/C(=O)N1CCC[C@@H](Nc2n[nH]c3nccc(Oc4ccc(Oc5ccccc5)cc4)c23)C1)C1CC1 on JAK3 (Homo sapiens); IC50 returned: > 10 µM

Query CN(C/C=C/C(=O)N1CCC[C@@H](Nc2n[nH]c3nccc(Oc4ccc(C(=O)Nc5nc6ccccc6s5)cc4)c23)C1)C1CC1 on JAK3 (Homo sapiens); IC50 returned: 1 to 10 µM

Query CC#CC(=O)N1CCC[C@@H](Nc2n[nH]c3nccc(Oc4ccc(C(=O)Nc5ncc(C)s5)cc4)c23)C1 on JAK3 (Homo sapiens); IC50 returned: 1 to 10 µM

Query Cc1cc(Oc2ccccc2)ccc1Oc1ccnc2[nH]nc(N[C@@H]3CCCN(C(=O)/C=C/CN(C)C4CC4)C3)c12 on JAK3 (Homo sapiens); IC50 returned: 1 to 10 µM

Query CCOP(=O)(CCC(=O)N1CCC[C@@H](Nc2n[nH]c3nccc(Oc4ccc(C(=O)Nc5cc(C)ccn5)cc4)c23)C1)OCC on JAK3 (Homo sapiens); IC50 returned: > 10 µM

* * *

Target: UniProtKB P06239
Assay: Lck kinase activity, TR-FRET assay
Format: biochemical
Settings: read-out: LCK (IC50)
pIC50: −log10 of the molar value.
METRIC: pIC50

As a guide, the following entries are already answered.
# MOL_SMILES, SYSTEM_TESTED, VAL
rows = [
    ("Cc1ccnc(NC(=O)c2ccc(Oc3ccnc4[nH]nc(N[C@@H]5CCCN(C(=O)N(C)C)C5)c34)cc2)c1", "UniProtKB P06239", "6.00 to 7.00"),
    ("CCC(=O)N1CC[C@@H](Nc2n[nH]c3nccc(Oc4ccc(C(=O)Nc5nccc(=O)[nH]5)cc4)c23)C1", "UniProtKB P06239", "< 5.00"),
    ("Cc1ccnc(NC(=O)c2ccc(Oc3ccnc4[nH]nc(N[C@@H]5CCCN(C(=O)c6ccccc6F)C5)c34)cc2)c1", "UniProtKB P06239", "5.00 to 6.00"),
    ("Cc1cccc2nc(-c3ccc(Oc4ccnc5[nH]nc(N[C@@H]6CCCN(C(=O)C7CCN(C)CC7)C6)c45)cc3)oc12", "UniProtKB P06239", "< 5.00"),
    ("N#C/C(=C\\C1CCC1)C(=O)N1CC[C@@H](Nc2n[nH]c3nccc(Oc4ccc(Oc5ccccc5)cc4)c23)C1", "UniProtKB P06239", "6.00 to 7.00"),
]

Query CN(C(=O)/C=C/CN(C)C1CC1)c1cccc(Nc2n[nH]c3nccc(Oc4ccc(Oc5ccccc5)cc4)c23)c1 on UniProtKB P06239; pIC50 returned: 6.00 to 7.00

Query CN(C/C=C/C(=O)N1CC[C@@H](Nc2n[nH]c3nccc(Oc4ccc(C(=O)Nc5cc(C(F)(F)F)ccn5)cc4)c23)C1)C1CC1 on UniProtKB P06239; pIC50 returned: 6.00 to 7.00

* * *

Target: EGFR (Homo sapiens)
Sequence (P00533 25-1210): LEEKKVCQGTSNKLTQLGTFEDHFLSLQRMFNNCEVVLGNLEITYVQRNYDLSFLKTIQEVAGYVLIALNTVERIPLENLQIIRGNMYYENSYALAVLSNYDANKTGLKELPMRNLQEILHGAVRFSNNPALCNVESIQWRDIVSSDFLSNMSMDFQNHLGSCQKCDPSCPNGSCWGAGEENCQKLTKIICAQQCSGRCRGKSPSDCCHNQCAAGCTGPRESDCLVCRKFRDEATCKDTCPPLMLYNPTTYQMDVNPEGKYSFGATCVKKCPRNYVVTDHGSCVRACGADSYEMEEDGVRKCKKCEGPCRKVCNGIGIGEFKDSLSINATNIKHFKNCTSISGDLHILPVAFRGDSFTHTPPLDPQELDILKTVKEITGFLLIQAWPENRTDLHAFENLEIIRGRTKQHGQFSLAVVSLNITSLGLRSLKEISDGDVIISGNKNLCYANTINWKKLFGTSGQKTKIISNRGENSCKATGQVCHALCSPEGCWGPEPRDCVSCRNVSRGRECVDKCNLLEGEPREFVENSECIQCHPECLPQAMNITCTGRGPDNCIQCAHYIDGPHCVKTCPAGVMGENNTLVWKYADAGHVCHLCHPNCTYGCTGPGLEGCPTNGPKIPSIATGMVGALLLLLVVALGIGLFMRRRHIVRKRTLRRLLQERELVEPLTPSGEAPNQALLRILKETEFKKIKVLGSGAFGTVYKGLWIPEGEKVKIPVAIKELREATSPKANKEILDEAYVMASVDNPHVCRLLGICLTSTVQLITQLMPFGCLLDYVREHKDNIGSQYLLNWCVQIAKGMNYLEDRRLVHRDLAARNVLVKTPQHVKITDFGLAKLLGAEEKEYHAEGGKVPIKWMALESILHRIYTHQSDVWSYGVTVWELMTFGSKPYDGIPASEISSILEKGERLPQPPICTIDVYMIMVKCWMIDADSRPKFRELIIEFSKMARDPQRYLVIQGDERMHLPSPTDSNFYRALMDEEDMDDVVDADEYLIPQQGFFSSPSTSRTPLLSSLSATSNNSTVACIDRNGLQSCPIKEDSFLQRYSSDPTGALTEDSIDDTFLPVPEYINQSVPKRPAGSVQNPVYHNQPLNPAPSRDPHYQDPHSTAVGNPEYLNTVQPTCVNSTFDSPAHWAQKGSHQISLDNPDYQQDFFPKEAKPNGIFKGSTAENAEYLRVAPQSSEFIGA
IC50 values for the compounds below.

As a guide, the following entries are already answered.
# MOL_SMILES, IC50
measured = [
    ("CN(C/C=C/C(=O)N1CC[C@@H](Nc2n[nH]c3nccc(Oc4ccc(C(=O)Nc5cc(OC6CC6)ccn5)cc4)c23)C1)C1CC1", "100 to 1000 nM"),
    ("CO[C@H]1CC[C@@H](Nc2n[nH]c3nccc(Oc4ccc(C(=O)Nc5cc(C#N)ccn5)cc4)c23)CC1", "100 to 1000 nM"),
    ("C=CC(=O)N1CCC[C@@H](Nc2n[nH]c3nccc(Oc4ccc(Oc5ccccc5)cc4)c23)C1", "< 100 nM"),
]

Query CN(C)C/C=C/C(=O)N1CC[C@@H](Nc2n[nH]c3nccc(Oc4ccc(-c5ncco5)c(Cl)c4)c23)C1 on EGFR (Homo sapiens); IC50 returned: 1000 to 10000 nM

Query COCCNc1n[nH]c2nccc(Oc3ccc(C(=O)Nc4cc(C(F)(F)F)ccn4)cc3)c12 on EGFR (Homo sapiens); IC50 returned: 1000 to 10000 nM

Query Cc1cc(NC(=O)c2cccc(Oc3ccnc4[nH]nc(N[C@H]5CCN(C(=O)c6ccc(F)cc6)C5)c34)c2)ccc1C(C)C on EGFR (Homo sapiens); IC50 returned: > 10000 nM

Query CN(C/C=C/C(=O)N1CC[C@@H](Nc2n[nH]c3nccc(Oc4cccc(Oc5ccccc5)c4)c23)C1)C1CC1 on EGFR (Homo sapiens); IC50 returned: 1000 to 10000 nM

Query CCC(=O)N1CC[C@@H](Oc2n[nH]c3nccc(Nc4ccc(C(=O)Nc5cc(C(F)(F)F)ccn5)cc4)c23)C1 on EGFR (Homo sapiens); IC50 returned: 1000 to 10000 nM

Query CCNC(=O)N1CC[C@@H](Nc2n[nH]c3nccc(Oc4ccc(C(=O)Nc5ncc(C)s5)cc4)c23)C1 on EGFR (Homo sapiens); IC50 returned: > 10000 nM

Query CN(C)C/C=C/C(=O)N1CC[C@@H](Nc2n[nH]c3nccc(Oc4ccc(Cl)cc4)c23)C1 on EGFR (Homo sapiens); IC50 returned: 100 to 1000 nM

* * *

Target: Lck (Homo sapiens, UniProt P06239)
Assay: Lck kinase activity, TR-FRET assay
Type: biochemical
Details: read-out: LCK (IC50)
pIC50: −log10 of the molar value.
pIC50 values for the molecules below.

As a guide, the following entries are already answered.
# MOLECULE, pIC50
measured = [
    ("Cc1ccnc(NC(=O)c2ccc(Oc3ccnc4[nH]nc(N[C@@H]5CCCN(C(=O)C6CCOCC6)C5)c34)cc2)c1 [compound 105]", "5.00 to 6.00"),
    ("CN(C)C/C=C/C(=O)N1CC[C@@H](Nc2n[nH]c3nccc(O[C@H]4CCN(c5ccccc5)C4)c23)C1 [compound 24]", "5.00 to 6.00"),
    ("CC#CC(=O)N1CCC[C@@H](Nc2n[nH]c3nccc(Oc4ccc(C(=O)Nc5nc6ccccc6s5)cc4)c23)C1 [compound 183]", "6.00 to 7.00"),
    ("Cc1ccnc(NC(=O)c2ccc(Oc3ccnc4[nH]nc(N[C@@H]5CCCN(C(=O)CCCN(C)C)C5)c34)cc2)c1 [compound 95]", "> 7.00"),
    ("CCNC(=O)N1CCC[C@@H](Nc2n[nH]c3nccc(Oc4ccc(-c5nc6ccccc6[nH]5)cc4)c23)C1 [compound 224]", "5.00 to 6.00"),
]

Briefly, pIC50 measured for C=CC(=O)N1CCC[C@@H](Nc2n[nH]c3nccc(Oc4ccc(-c5nc(C(F)(F)F)c[nH]5)cc4)c23)C1 [compound 154] : < 5.00

Briefly, pIC50 measured for CCC(=O)N1CC[C@@H](Oc2n[nH]c3nccc(Nc4ccc(C(=O)Nc5cc(C(F)(F)F)ccn5)cc4)c23)C1 [compound 71] : 6.00 to 7.00

Briefly, pIC50 measured for CN(C)C/C=C/C(=O)N1CC[C@@H](Nc2n[nH]c3ncnc(Oc4ccc(Oc5ccccc5)cc4)c23)C1 [compound 39] : 6.00 to 7.00

Briefly, pIC50 measured for Cc1cc(NC(=O)c2cccc(Oc3ccnc4[nH]nc(N[C@@H]5CCCN(C(=O)C#CCO)C5)c34)c2)ccc1C(C)C [compound 251] : 6.00 to 7.00

Briefly, pIC50 measured for CC#CC(=O)N1CCC[C@@H](Nc2n[nH]c3nccc(Oc4ccc(C(=O)Nc5cc(C(F)(F)F)ccn5)cc4)c23)C1 [compound 205] : 6.00 to 7.00

Briefly, pIC50 measured for Cc1cc(NC(=O)c2cccc(Oc3ccnc4[nH]nc(N[C@H]5CCN(C(=O)c6ccc(F)cc6)C5)c34)c2)ccc1C(C)C [compound 128] : > 7.00

Briefly, pIC50 measured for CN(C)CCCC(=O)N1CCC[C@@H](Nc2n[nH]c3nccc(Oc4ccc(C(=O)Nc5cc(C(F)(F)F)ccn5)cc4)c23)C1 [compound 161] : > 7.00

Briefly, pIC50 measured for CNC(=O)/C(C#N)=C\c1cccc(Nc2n[nH]c3nccc(Oc4ccc(Oc5ccccc5)cc4)c23)c1 [compound 29] : 6.00 to 7.00

Briefly, pIC50 measured for Cc1cc(Oc2ccnc3[nH]nc(N[C@@H]4CCCN(C(=O)/C=C/CN(C)C5CC5)C4)c23)ccc1Oc1ccccc1 [compound 156] : 6.00 to 7.00

// data source = patent US9580416B2
